System under test: Bromodomain adjacent to zinc finger domain protein 2B (Homo sapiens)
Protocol summary: qHTS Assay for Inhibitors of BAZ2B; further: nearly all actives have a fitted effect of over 60% in size
Condition parameters: AlphaScreen BAZ2B-H3K14Ac peptide displacement; series mostly up to 114 µM
The whole screen tested about 360,000 compounds, of which about 16,000 (4.4%) were called active. Roughly 9% stayed inconclusive and do not appear here. The call rests on the fitted dose curve; in most records, active means well fitted inhibition curve with a large enough effect; inconclusive means small, poorly fitted or top-dose-only effect; inactive means no such curve, though single readings can be large or run the other way. The sample as a whole holds a higher share of actives than the screen did.
# output must be one of active, inactive

What did the test return for O=C(NCc1ccccc1)C(=O)NCC(c1ccco1)S(=O)(=O)c1ccc(Cl)cc1 (stereo unspecified) ?
inactive

Hello, I am checking results. What call was entered for `C/C(=N\Nc1cccc(C(=O)O)c1)c1ccc2c(c1)Nc1ccccc1S2` ?
active

Tell me the assay call for `COc1ccccc1C(=O)OCc1cc(=O)n2nc(-c3cccs3)sc2n1` please.
inactive

I'd appreciate the recorded outcome for `CCCN(C(=O)Cn1ncc2c([nH]c3ccc(C)cc32)c1=O)c1ccccc1C` from this test.
inactive

Which outcome was assigned to Cc1ccc(C)c(CN2C(=O)c3ccccc3S(=O)c3ccc(C(=O)N4CCOCC4)cc32)c1 (stereo unspecified) in this test?
inactive

Given COc1ccc(OC)c(NC(=O)CSC2=Nc3ccccc3C3=NC(CC(=O)NCc4ccc(F)cc4)C(=O)N23)c1 (stereo unspecified) , state the outcome it received in this test.
inactive

// outcome(item) with item = COC(=O)c1ccc(/C=N/N2C(C)CCCC2C)cc1 (stereo unspecified)
active

Identify the outcome logged in this assay for the molecule shown: `Cc1cc(C)c2c(-c3ccc(F)cc3)c(C#N)c(=O)n(C)c2n1`
inactive

Dear all, I need the recorded test outcome for `COc1ccccc1-c1noc(CSc2nnc(-c3ccccc3)n2-c2ccc(C)c(C)c2)n1` , thank you.
inactive

What outcome does the record of this test show for `Fc1ccc(-n2ncc3c(Nc4ccc(Oc5ccccc5)cc4)ncnc32)cc1` ?
inactive

Please let me know the test result on file for `COc1ccc(NC(=O)c2sc3nc(-c4cc5cccc(OC)c5oc4=O)[nH]c(=O)c3c2C)cc1` .
inactive

For `Cc1ccc(Cl)cc1NC(=O)CCS(=O)(=O)c1ccc(Br)s1` , which call appears in the assay record?
inactive

Short answer needed: outcome of this test for `COc1ccc(CCNC(=O)Cn2c(=O)cc(C(F)(F)F)c3c(C)nn(C)c32)c(OC)c1` ?
inactive

Write down the call the test reported for this molecule. Item: `O=C(O)c1ccc(Cn2c(SCc3ccc(F)cc3)nc3ccncc32)cc1`
inactive

Assay result, entry COc1ccc(C2C(=O)N(C3CCCCCC3)CC(=O)N2CCc2ccc(Cl)cc2)cc1OC (stereo unspecified) — outcome?
inactive

Which outcome did this test record for the molecule `CC(=O)c1c(C)[nH]c(=S)c(C#N)c1-c1ccc(F)cc1` ?
active

# outcome recorded in this test, key = `Cc1ccc(NC(=O)CN2c3ccccc3S(=O)(=O)c3ccccc32)cc1F`
inactive

Fill in: this test's call for CCOC(=O)c1cc2c(=O)n3ccccc3nc2n(CC2CCCO2)c1=NC(=O)c1ccccc1F (stereo unspecified) is ___
inactive

Which result was noted for this molecule in the test: `Cc1cc(OCC(=O)Nc2ncn[nH]2)c(C)c(C)c1Br`
inactive

Field: outcome | Entry: `Nc1ccc2nc3c(=O)[nH]c(=S)[nH]c3nc2c1`
active

Could you check what this test reported for `CC(=O)c1ccc(NC(=O)CSc2c(C(C)C)cnc3c2c(=O)n(C)c(=O)n3C)cc1` ?
inactive
